# System: HeLa
# run description: cells
# experimental parameters: Homo sapiens, HeLa, read-out: EC50 for cell killing (μM) / SecinH3

| smiles input | assay system | EC50 |
| --- | --- | --- |
| COc1nc(-c2ccc3c(c2)OCO3)n(-c2ccc(NC(=O)CSc3ccccc3)cc2)n1 | HeLa | > 50 µM |

* * *

# assay system: Brag2Sec7-PH (Homo sapiens, UniProt Q6DN90)
# Sequence (Q6DN90 512-885): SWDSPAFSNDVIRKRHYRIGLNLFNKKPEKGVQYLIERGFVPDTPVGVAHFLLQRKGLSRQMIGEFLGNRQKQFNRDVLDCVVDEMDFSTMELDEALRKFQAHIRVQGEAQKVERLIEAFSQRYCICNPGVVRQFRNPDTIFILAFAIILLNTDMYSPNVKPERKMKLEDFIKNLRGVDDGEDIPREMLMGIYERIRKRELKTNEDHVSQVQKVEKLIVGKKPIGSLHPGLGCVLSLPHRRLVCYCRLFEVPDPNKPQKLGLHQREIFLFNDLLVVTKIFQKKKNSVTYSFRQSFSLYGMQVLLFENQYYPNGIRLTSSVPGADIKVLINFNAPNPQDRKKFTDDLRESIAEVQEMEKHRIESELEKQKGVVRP
pIC50: −log10 of the molar value.
measured attribute: pIC50

| smiles input | data value |
| --- | --- |
| O=c1cc(-c2ccc([N+](=O)[O-])cc2)[nH]c2c(-c3ccc(Cl)cc3)c(Cc3ccccc3)nn12 | 5.15 |
